The entries below come with measured IC50 values attached.
- subjectOfTest: full-length beta-Catenin (Uniprot ID P35222) (Homo sapiens, UniProt P35222)
- Construct: 10 nM full-length beta-Catenin (Uniprot ID P35222)
- Sequence (P35222 whole entry): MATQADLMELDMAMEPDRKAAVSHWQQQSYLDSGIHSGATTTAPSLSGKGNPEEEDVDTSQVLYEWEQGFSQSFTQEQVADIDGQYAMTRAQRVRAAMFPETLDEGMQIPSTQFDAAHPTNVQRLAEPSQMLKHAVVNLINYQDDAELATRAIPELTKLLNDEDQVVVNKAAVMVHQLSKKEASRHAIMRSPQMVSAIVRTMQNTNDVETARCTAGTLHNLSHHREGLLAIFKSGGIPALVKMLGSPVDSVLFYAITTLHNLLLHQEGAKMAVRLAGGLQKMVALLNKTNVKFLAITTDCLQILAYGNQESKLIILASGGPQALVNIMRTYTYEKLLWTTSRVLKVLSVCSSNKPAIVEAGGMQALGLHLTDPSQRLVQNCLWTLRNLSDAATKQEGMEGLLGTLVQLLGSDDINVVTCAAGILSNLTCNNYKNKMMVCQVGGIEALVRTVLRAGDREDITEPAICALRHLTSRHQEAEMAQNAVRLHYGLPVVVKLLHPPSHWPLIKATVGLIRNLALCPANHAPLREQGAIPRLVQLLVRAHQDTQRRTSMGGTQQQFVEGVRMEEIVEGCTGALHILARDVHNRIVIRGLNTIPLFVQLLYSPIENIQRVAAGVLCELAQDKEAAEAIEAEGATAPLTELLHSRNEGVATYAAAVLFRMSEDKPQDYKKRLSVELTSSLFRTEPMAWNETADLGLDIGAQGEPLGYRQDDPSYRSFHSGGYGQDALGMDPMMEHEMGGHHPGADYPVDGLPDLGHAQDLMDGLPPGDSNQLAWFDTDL
- testDetails: Fluorescence polarization IC50 (beta-catenin / 5FAM-TCF4 10-53 competition)
- Assay type: binding
- measurementConditions: fluorescence polarization; read-out: beta-Catenin FP IC50
State just the number; it will be interpreted in nM.

Worked examples follow.
| compound | IC50 (nM) |
| --- | --- |
| CC(=O)N1CCC[C@]12CC=CCCCC1(CCCC=CCCCOC(=O)N3CC[C@@](C(=O)N[C@@H](Cc4ccccc4C(F)(F)F)C(=O)N[C@@H](Cc4csc5ccccc45)C(=O)N[C@@H](CCC(N)=O)C(=O)N[C@@H](CC(C)C)C(=O)N[C@@H](C)C(N)=O)(C3)NC(=O)[C@H](CC(C)C)NC(=O)[C@H](Cc3ccccc3)NC(=O)[C@H](C)NC(=O)[C@H](C)NC(=O)[C@H](Cc3cccc(C(=O)O)c3)NC(=O)[C@H](CC(=O)O)NC1=O)NC(=O)[C@H](CC(C)(C)C)NC(=O)[C@H](CC(=O)O)NC2=O (stereo partly drawn) | 31 |
| CC(=O)N1CCC[C@]12CC=CCCCC1(CCCC=CCCCOC(=O)N3CC[C@@](C(=O)N[C@@H](Cc4ccccc4Cl)C(=O)N[C@@H](Cc4csc5ccccc45)C(=O)N[C@@H](Cc4ccccc4)C(N)=O)(C3)NC(=O)[C@H](CC(N)=O)NC(=O)[C@H](Cc3ccccc3)NC(=O)[C@H](C)NC(=O)[C@H](C)NC(=O)[C@H](Cc3cccc(C(=O)O)c3)NC(=O)[C@H](CC(=O)O)NC1=O)NC(=O)[C@H](CC(C)(C)C)NC(=O)[C@H](CC(=O)O)NC2=O (stereo partly drawn) | 30 |

Ask: Look up IC50: CC(=O)N1CCC[C@]12CC=CCCCC1(CCCC=CCCCCCC[C@@](C)(C(=O)N[C@@H](Cc3ccccc3)C(=O)N[C@@H](Cc3csc4ccccc34)C(N)=O)NC(=O)[C@H](CCCNC(N)=O)NC(=O)[C@H](Cc3ccccc3)NC(=O)[C@H](C)NC(=O)[C@H](C)NC(=O)[C@H](CCC(=O)O)NC(=O)[C@H](CC(=O)O)NC1=O)NC(=O)[C@H](CC(C)C)NC(=O)[C@H](CC(=O)O)NC2=O (stereo partly drawn) [I-629]
Result: 36

Ask: Field entry: CC(=O)N1CCC[C@H]1C(=O)N[C@]1(C)CCCCCCC2(CCCCCCCCOC(=O)N3CC[C@@](C(=O)N[C@@H](Cc4ccccc4C(F)(F)F)C(=O)N[C@@H](Cc4csc5ccccc45)C(=O)N[C@@H](CCC(N)=O)C(N)=O)(C3)NC(=O)[C@H](CC(C)C)NC(=O)[C@H](Cc3ccccc3)NC(=O)[C@H](C)NC(=O)[C@H](C)NC(=O)[C@H](Cc3cccc(C(=O)O)c3)NC(=O)[C@H](CC(=O)O)NC2=O)NC(=O)[C@H](CC(C)(C)C)NC(=O)[C@H](CC(=O)O)NC1=O (stereo partly drawn)
Result: 67

Ask: Field entry: CC(=O)N1CCC[C@]12CC=CCCCC1(CCCC=CCCCCCC[C@@](C)(C(=O)N[C@@H](Cc3ccccc3)C(=O)N[C@@H](Cc3csc4ccccc34)C(=O)N[C@@H](CCC(N)=O)C(N)=O)NC(=O)[C@H](CCO)NC(=O)[C@H](Cc3ccccc3)NC(=O)[C@H](C)NC(=O)[C@H](C)NC(=O)[C@H](CCC(=O)O)NC(=O)[C@H](CC(=O)O)NC1=O)NC(=O)[C@H](CCCCN)NC(=O)[C@H](CC(=O)O)NC2=O (stereo partly drawn)
Result: 63

Reference source for all entries: patent US20240116985A1
